Molecular target: T1, TNFR1 (Homo sapiens, UniProt P19438)
T1 chain: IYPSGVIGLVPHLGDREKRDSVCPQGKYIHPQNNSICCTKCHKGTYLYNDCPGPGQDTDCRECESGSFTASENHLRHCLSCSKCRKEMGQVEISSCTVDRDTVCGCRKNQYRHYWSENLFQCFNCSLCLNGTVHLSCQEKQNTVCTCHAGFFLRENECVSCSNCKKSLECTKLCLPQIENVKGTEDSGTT
Test: yeast display SC50
Record form. Attribute: apparent Kd (screen). Fill in for each entry.
Give bare numbers, in nM.

Examples with answers:
binder | apparent Kd (screen), nM
A83K (designed binder) MTLQELLREEALRRAEAEAFRYALELLAEKFPEQKEYLLDLAEEIESQIRSLSGVDVEDVRKFLDKEWAWVKELLAEHPAELKEVEAARAARLAELRAEVEAKVAA | 0.539
R50S (designed binder) MTLQELLREEALRRAEAEAFRYALELLAEKFPEQKEYLLDLAEEIESQISSLSGVDVEDVRKFLDKEWAWVKELLAEHPAELAEVEAARAARLAELRAEVEAKVAA | 0.653
A98K (designed binder) MTLQELLREEALRRAEAEAFRYALELLAEKFPEQKEYLLDLAEEIESQIRSLSGVDVEDVRKFLDKEWAWVKELLAEHPAELAEVEAARAARLAELRKEVEAKVAA | 0.446
E18R (designed binder) MTLQELLREEALRRAEARAFRYALELLAEKFPEQKEYLLDLAEEIESQIRSLSGVDVEDVRKFLDKEWAWVKELLAEHPAELAEVEAARAARLAELRAEVEAKVAA | 0.718

Next item in the queue.
In: Would you kindly share the measured apparent Kd (screen) for E95V (designed binder) MTLQELLREEALRRAEAEAFRYALELLAEKFPEQKEYLLDLAEEIESQIRSLSGVDVEDVRKFLDKEWAWVKELLAEHPAELAEVEAARAARLAVLRAEVEAKVAA ?
Out: 0.49
